TGT: T1, HCV ORFs (Gal4-DB fusions) (Hepatitis C virus genotype 1b, UniProt Q9WMX2)
T1 construct: expressed in transfected cells; host or cells: Saccharomyces cerevisiae MAV203 (IMAP1) / AH109 (IMAP2)
Type: binding, HCV genotype 1b, isolate con1
SETTINGS: HCV protein NS5A as bait; human protein as prey;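 also: yeast two-hybrid screens using HCV genotype 1b proteins fused to Gal4-DB as baits against prey cDNA libraries from human spleen and foetal brain, IMAP1 via transformation and IMAP2 via mating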
ENDPOINT NAME: IMAP Y2H IMAP2 (number of IST)

# annotated cases, reported IMAP Y2H IMAP2 (number of IST) shown
GPS2 (protein, UniProt Q13227 1-327, looked up) G protein pathway suppressor 2: MPALLERPKLSNAMARALHRHIMMERERKRQEEEEVDKMMEQKMKEEQERRKKKEMEERMSLEETKEQILKLEEKLLALQEEKHQLFLQLKKVLHEEEKRRRKEQSDLTTLTSAAYQQSLTVHTGTHLLSMQGSPGGHNRPGTLMAADRAKQMFGPQVLTTRHYVGSAAAFAGTPEHGQFQGSPGGAYGTAQPPPHYGPTQPAYSPSQQLRAPSAFPAVQYLSQPQPQPYAVHGHFQPTQTGFLQPGGALSLQKQMEHANQQTGFSDSSSLRPMHPQALHPAPGLLASPQLPVQMQPAGKSGFAATSQPGPRLPFIQHSQNPRFYHK ... 1
LIMS2 (protein, UniProt Q7Z4I7 1-341, looked up) LIM and senescent cell …: MTGSNMSDALANAVCQRCQARFSPAERIVNSNGELYHEHCFVCAQCFRPFPEGLFYEFEGRKYCEHDFQMLFAPCCGSCGEFIIGRVIKAMNNNWHPGCFRCELCDVELADLGFVKNAGRHLCRPCHNREKAKGLGKYICQRCHLVIDEQPLMFRSDAYHPDHFNCTHCGKELTAEARELKGELYCLPCHDKMGVPICGACRRPIEGRVVNALGKQWHVEHFVCAKCEKPFLGHRHYEKKGLAYCETHYNQLFGDVCYNCSHVIEGDVVSALNKAWCVSCFSCSTCNSKLTLKNKFVEFDMKPVCKRCYEKFPLELKKRLKKLSELTSRKAQPKATDLNSA ... 1
NAP1L1 (protein, UniProt P55209 2-388, looked up) Nucleosome assembly protein …: ADIDNKEQSELDQDLDDVEEVEEEETGEETKLKARQLTVQMMQNPQILAALQERLDGLVETPTGYIESLPRVVKRRVNALKNLQVKCAQIEAKFYEEVHDLERKYAVLYQPLFDKRFEIINAIYEPTEEECEWKPDEEDEISEELKEKAKIEDEKKDEEKEDPKGIPEFWLTVFKNVDLLSDMVQEHDEPILKHLKDIKVKFSDAGQPMSFVLEFHFEPNEYFTNEVLTKTYRMRSEPDDSDPFSFDGPEIMGCTGCQIDWKKGKNVTLKTIKKKQKHKGRGTVRTVTKTVSNDSFFNFFAPPEVPESGDLDDDAEAILAADFEIGHFLRERIIPRSVLYFTGEAIEDDDDDYDEEGEEADEEGEEEGDEENDPDYDPKKDQNPAEC ... 31

Field: next molecule
Give the reported IMAP Y2H IMAP2 (number of IST) for this molecule. NFE2 (protein, UniProt Q16621 1-373, looked up) Transcription factor NF-E2 45 …: MSPCPPQQSRNRVIQLSTSELGEMELTWQEIMSITELQGLNAPSEPSFEPQAPAPYLGPPPPTTYCPCSIHPDSGFPLPPPPYELPASTSHVPDPPYSYGNMAIPVSKPLSLSGLLSEPLQDPLALLDIGLPAGPPKPQEDPESDSGLSLNYSDAESLELEGTEAGRRRSEYVEMYPVEYPYSLMPNSLAHSNYTLPAAETPLALEPSSGPVRAKPTARGEAGSRDERRALAMKIPFPTDKIVNLPVDDFNELLARYPLTESQLALVRDIRRRGKNKVAAQNCRKRKLETIVQLERELERLTNERERLLRARGEADRTLEVMRQQLTELYRDIFQHLRDESGNSYSPEEYALQQAADGTIFLVPRGTKMEATD
1
